recorded conditions: in methyl acetate, 324.9 K
observed property: solubility (mole fraction)
I only need the number, thanks.

Prompt line: # solubility (mole fraction) lookup, item CC1(C)C2CCC1(CS(=O)(=O)O)C(=O)C2 (stereo unspecified)
Response line: 0.0459

* * *

recorded conditions: in acetyl acetate, 324.9 K
observed property: solubility (mole fraction)
I only need the number, thanks.

Prompt line: # solubility (mole fraction) lookup, item CC1(C)C2CCC1(CS(=O)(=O)O)C(=O)C2 (stereo unspecified)
Response line: 0.173

* * *

recorded conditions: in methyl acetate, 310.6 K
observed property: solubility (mole fraction)
I only need the number, thanks.

Prompt line: # solubility (mole fraction) lookup, item CC1(C)C2CCC1(CS(=O)(=O)O)C(=O)C2 (stereo unspecified)
Response line: 0.0278

* * *

recorded conditions: in methyl acetate, 334.6 K
observed property: solubility (mole fraction)
I only need the number, thanks.

Prompt line: # solubility (mole fraction) lookup, item CC1(C)C2CCC1(CS(=O)(=O)O)C(=O)C2 (stereo unspecified)
Response line: 0.0726

* * *

recorded conditions: in acetyl acetate, 321.4 K
observed property: solubility (mole fraction)
I only need the number, thanks.

Prompt line: # solubility (mole fraction) lookup, item CC1(C)C2CCC1(CS(=O)(=O)O)C(=O)C2 (stereo unspecified)
Response line: 0.161

* * *

recorded conditions: in acetyl acetate, 331.7 K
observed property: solubility (mole fraction)
I only need the number, thanks.

Prompt line: # solubility (mole fraction) lookup, item CC1(C)C2CCC1(CS(=O)(=O)O)C(=O)C2 (stereo unspecified)
Response line: 0.181

* * *

recorded conditions: in methyl acetate, 339.1 K
observed property: solubility (mole fraction)

Prompt line: # solubility (mole fraction) lookup, item CC1(C)C2CCC1(CS(=O)(=O)O)C(=O)C2 (stereo unspecified)
Response line: 0.0906

* * *

recorded conditions: in methyl acetate, 329.1 K
observed property: solubility (mole fraction)
I only need the number, thanks.

Prompt line: # solubility (mole fraction) lookup, item CC1(C)C2CCC1(CS(=O)(=O)O)C(=O)C2 (stereo unspecified)
Response line: 0.0546

* * *

recorded conditions: in methyl acetate, 320.1 K
observed property: solubility (mole fraction)
I only need the number, thanks.

Prompt line: # solubility (mole fraction) lookup, item CC1(C)C2CCC1(CS(=O)(=O)O)C(=O)C2 (stereo unspecified)
Response line: 0.0409

* * *

recorded conditions: in methyl acetate, 321.4 K
observed property: solubility (mole fraction)
I only need the number, thanks.

Prompt line: # solubility (mole fraction) lookup, item CC1(C)C2CCC1(CS(=O)(=O)O)C(=O)C2 (stereo unspecified)
Response line: 0.039

* * *

recorded conditions: in acetyl acetate, 328.9 K
observed property: solubility (mole fraction)
I only need the number, thanks.

Prompt line: # solubility (mole fraction) lookup, item CC1(C)C2CCC1(CS(=O)(=O)O)C(=O)C2 (stereo unspecified)
Response line: 0.179
